# Tested target: Avi-KRAS G12C (2-169) GTP/RAF1 RBD-3xFLAG (51-131) (Homo sapiens, UniProt P01116, G12C)
# Construct: Avi-KRAS G12C (2-169)
# Sequence (P01116 2-169 isoform P01116-2 G12C): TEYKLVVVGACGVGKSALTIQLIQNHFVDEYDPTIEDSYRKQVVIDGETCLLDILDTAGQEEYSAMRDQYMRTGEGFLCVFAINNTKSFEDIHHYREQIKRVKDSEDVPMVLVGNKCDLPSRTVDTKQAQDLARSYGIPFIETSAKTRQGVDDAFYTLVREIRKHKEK
# Experiment: Raf1-KRAS G12C-GTP disruption HTRF assay (Biological Example 3)
# Assay type: binding
# Test settings: KRAS G12C, GTP-loaded
Entries and their IC50 values follow.
Assay readout: IC50

compound="CN(CC1COC1)c1nc(OC[C@@]23CCCN2C[C@H](F)C3)nc2c(F)c(-c3ccc(F)c4sc(N)c(C#N)c34)c(C(F)(F)F)cc12 (atropisomer, axis not shown) [Compound 963]" tested_target="Avi-KRAS G12C (2-169) GTP/RAF1 RBD-3xFLAG (51-131) (Homo sapiens, UniProt P01116, G12C)" assay_readout=IC50 reported="> 10 µM"
compound="CCN(c1nc(OC[C@@]23CCCN2C[C@H](F)C3)nc2c(F)c(-c3ccc(F)c4sc(N)c(C#N)c34)c(C(F)(F)F)cc12)[C@@H]1C[C@@H]2CCC(=O)N2C1 [Compound 511]" tested_target="Avi-KRAS G12C (2-169) GTP/RAF1 RBD-3xFLAG (51-131) (Homo sapiens, UniProt P01116, G12C)" assay_readout=IC50 reported="1 to 10 µM"
compound="CCN(c1nc(OC[C@@]23CCCN2C[C@H](F)C3)nc2c(F)c(-c3ccc(F)c4sc(N)c(C#N)c34)c(C(F)(F)F)cc12)[C@H]1CCN(C(=O)C2CC(OC)C2)C1 (some centres unmarked) [Compound 844]" tested_target="Avi-KRAS G12C (2-169) GTP/RAF1 RBD-3xFLAG (51-131) (Homo sapiens, UniProt P01116, G12C)" assay_readout=IC50 reported="0.1 to 1 µM"
compound="CCN(c1nc(OC[C@@]23CCCN2C[C@H](F)C3)nc2c(F)c(-c3ccc(F)c4sc(N)c(C#N)c34)c(C(F)(F)F)cc12)[C@H]1CCN(C(=O)OC)C1 [Compound 394]" tested_target="Avi-KRAS G12C (2-169) GTP/RAF1 RBD-3xFLAG (51-131) (Homo sapiens, UniProt P01116, G12C)" assay_readout=IC50 reported="0.1 to 1 µM"
compound="CCN(c1nc(OC[C@@]23CCCN2C[C@H](F)C3)nc2c(F)c(-c3ccc(F)c4sc(N)c(C#N)c34)c(C(F)(F)F)cc12)[C@H]1CCN(C(=O)[C@H]2C[C@H](F)C2)C1 (atropisomer, axis not shown) [Compound 846]" tested_target="Avi-KRAS G12C (2-169) GTP/RAF1 RBD-3xFLAG (51-131) (Homo sapiens, UniProt P01116, G12C)" assay_readout=IC50 reported="0.1 to 1 µM"

====

# Test system: SW620 cells (KRAS G12V)
# Experiment: Cell-based pERK HTRF assay in SW620 cell (Biological Example 4)
# Test settings: Homo sapiens, SW-620, SW620 (KRAS G12V) cells, pERK HTRF
pIC50: −log10 of the molar value.
Assay readout: pIC50

compound="CC(C)C(=O)N1C[C@@H](N(C)c2nc(OC[C@@]34CCCN3C[C@H](F)C4)nc3c(F)c(-c4ccc(F)c5sc(N)c(C#N)c45)c(C(F)(F)F)cc23)C[C@H]1C [Compound 448]" tested_target="SW620 cells (KRAS G12V)" reported="6.00 to 7.00"
compound="[2H]C1([2H])O[C@@H]2C[C@H]1N(c1nc(OC[C@@]34CCCN3C[C@H](F)C4)nc3c(F)c(-c4ccc(F)c5sc(N)c(C#N)c45)c(C(F)(F)F)cc13)C2 [Compound 371]" tested_target="SW620 cells (KRAS G12V)" reported="> 7.00"
compound="CC(=O)N(C)CCN(C)c1nc(OC[C@@]23CCCN2C[C@H](F)C3)nc2c(F)c(-c3ccc(F)c4sc(N)c(C#N)c34)c(C(F)(F)F)cc12 [Compound 255]" tested_target="SW620 cells (KRAS G12V)" reported="> 7.00"
compound="CC(=O)N1C[C@@H]2CCCN(c3nc(OC[C@@]45CCCN4C[C@H](F)C5)nc4c(F)c(-c5ccc(F)c6sc(N)c(C#N)c56)c(C(F)(F)F)cc34)[C@@H]2C1 [Compound 451]" tested_target="SW620 cells (KRAS G12V)" reported="6.00 to 7.00"
compound="CN(C)C(=O)c1nc2c(s1)CCN(c1nc(OCC34CCCN3CC(F)C4)nc3c(F)c(-c4ccc(F)c5sc(N)c(C#N)c45)c(C(F)(F)F)cc13)C2 (centres unmarked) [Compound 445]" tested_target="SW620 cells (KRAS G12V)" reported="6.00 to 7.00"
